TEST NAME: Solubility of the compound
Type: physicochemical
ATTRIBUTE MEASURED: solubility (µg/mL)
Give a bare numeral; the unit µg/mL is implied.

For reference, reported solubility for O=C1c2cccc3c(NCCO)ccc(c23)C(=O)N1c1cccc(Br)c1 stands at 0.44

---

TARGET OR TEST SYSTEM: Genome polyprotein (GB virus-B)
pIC50: −log10 of the molar value.
ATTRIBUTE MEASURED: pIC50

Measured pIC50 of O=C1c2cccc3c(NCCO)ccc(c23)C(=O)N1c1cccc(Br)c1 : < 4.30

---

TARGET OR TEST SYSTEM: RNA-directed RNA polymerase (Hepacivirus hominis, UniProt O39930, M423K)
TEST NAME: Inhibition of HCV1b BK NS5B Cdelta21 RNA dependent RNA polymerase Thumb site 2 M423K mutant
ATTRIBUTE MEASURED: IC50

Reported RNA-directed RNA polymerase (Hepacivirus hominis, UniProt O39930, M423K) IC50 for item CC(C)N(c1cc(-c2ccccc2)sc1C(=O)O)C(=O)[C@H]1CC[C@H](C)CC1 was > 500 nM

---

TEST NAME: Oral bioavailability in rat at 3 mg/kg
Format: ADME, organism-based
CONDITION DETAILS: in vivo
ATTRIBUTE MEASURED: bioavailability (%)
Expressed in %, but write only the number.

Input O=C1c2cccc3c(NCCO)ccc(c23)C(=O)N1c1cccc(Br)c1 . Output bioavailability: 83

---

TEST NAME: Inhibition of HCV6a NS5B Cdelta21 RNA dependent RNA polymerase
Set-up: species or system Hepatitis C virus subtype 6a
ATTRIBUTE MEASURED: IC50 (nM)
Numbers only; they are read as nM.

// O=C1c2cccc3c(NCCO)ccc(c23)C(=O)N1c1cccc(Br)c1 : IC50 value = 490

---

TEST NAME: Cmax in rat at 3 mg/kg, po after 0.7 hrs
Assay type: ADME, organism-based
Parameters: dose 3 mg/kg, route oral
CONDITION DETAILS: in vivo
ATTRIBUTE MEASURED: Cmax (µM)
Give just the numeric value; µM need not be written.

Query O=C1c2cccc3c(NCCO)ccc(c23)C(=O)N1c1cccc(Br)c1 yields Cmax of 4

---

TEST NAME: Volume of distribution at steady state in rat at 3 mg/kg, iv
Assay type: ADME, organism-based
Set-up: dose 3 mg/kg, route intravenous
CONDITION DETAILS: in vivo, read-out: Vdss
ATTRIBUTE MEASURED: Vd (L/kg)
Note: unit L/kg is implicit; provide only the numeric part.

Please fill in: Vd reported for O=C1c2cccc3c(NCCO)ccc(c23)C(=O)N1c1cccc(Br)c1 = 1.1

---

TEST NAME: Inhibition of HIV reverse transcriptase
Parameters: species or system Human immunodeficiency virus
pIC50: −log10 of the molar value.
ATTRIBUTE MEASURED: pIC50

Consider O=C1c2cccc3c(NCCO)ccc(c23)C(=O)N1c1cccc(Br)c1 . Its measured pIC50 is < 4.30

---

Readings of IC50 for the listed compounds
TEST NAME: Inhibition of HCV1b BK NS5B Cdelta21 RNA dependent RNA polymerase
Parameters: species or system Hepatitis C virus (isolate BK)

Consider the worked cases shown below.
CNCCNc1ccc2c3c(cccc13)C(=O)N(c1cccc(Br)c1)C2=O :: 130 nM
O=C1c2cccc3c(N[C@H]4CC[C@@H](C(=O)O)CC4)ccc(c23)C(=O)N1c1cccc(Br)c1 :: 42 nM
CCNc1ccc2c3c(cccc13)C(=O)N(c1cccc(Br)c1)C2=O :: 29 nM
O=C1c2ccc(NCCO)c3cccc(c23)CN1c1cccc(Br)c1 :: 850 nM
Nc1ccc2c3c(cccc13)C(=O)N(c1cccc(Br)c1)C2=O :: 190 nM

// IC50 value for O=C1c2cccc3c(NC4CCNCC4)ccc(c23)C(=O)N1c1cccc(Br)c1 : 30 nM

Item: O=C1c2cccc3cccc(c23)C(=O)N1c1cccc(Br)c1 | IC50: > 50000 nM

In plain terms, O=C1c2cccc3c(NC4CCN(Cc5ccccc5)CC4)ccc(c23)C(=O)N1c1cccc(Br)c1 has a documented IC50 of < 14 nM
